Source: BindingDB's records for doi:10.1016/j.bmcl.2020.126986

Provide the recorded pEC50 for the entries that follow.
test: Inhibition of NS5B polymerase in HCV genotype 1b Con1 infected in human HuH7 replicon cells assessed as inhibition of viral replication after 3 days by luciferase reporter gene assay
Answers are plain numbers, as −log10 of the molar value.

Consider the following illustrative entries.
[
  {
    "molecule": "CC(C)OC(=O)[C@H](C)N[P@](=O)(OC[C@H]1O[C@@H](n2ccc(=O)[nH]c2=O)[C@](Cl)(Br)[C@@H]1O)Oc1ccccc1",
    "value": 6.83
  },
  {
    "molecule": "COCC(C)C(=O)OC[C@H](C)NP(=O)(OC[C@H]1O[C@@H](n2ccc(=O)[nH]c2=O)[C@](Cl)(Br)[C@@H]1O)Oc1ccccc1 (stereo partly drawn)",
    "value": 6.28
  },
  {
    "molecule": "CC(C)C(=O)OC[C@H](C)NP(=O)(OC[C@H]1O[C@@H](n2ccc(=O)[nH]c2=O)[C@](Cl)(Br)[C@@H]1O)Oc1ccccc1 (stereo partly drawn)",
    "value": 6.34
  },
  {
    "molecule": "CC(C)OC(=O)C(C)(C)NP(=O)(OC[C@H]1O[C@@H](n2ccc(=O)[nH]c2=O)[C@](Cl)(Br)[C@@H]1O)Oc1ccccc1 (stereo partly drawn)",
    "value": 5.86
  },
  {
    "molecule": "COCC(C)OC(=O)[C@H](C)NP(=O)(OC[C@H]1O[C@@H](n2ccc(=O)[nH]c2=O)[C@](Cl)(Br)[C@@H]1O)Oc1ccccc1 (stereo partly drawn)",
    "value": 6.41
  },
  {
    "molecule": "CC(C)OC(=O)[C@H](C)N[P@](=O)(OC[C@H]1O[C@@H](n2ccc(=O)[nH]c2=O)[C@](Cl)(Br)[C@@H]1OC(=O)[C@@H](N)C(C)C)Oc1ccccc1",
    "value": 6.78
  }
]

Quick batch: pEC50 for everything below.
1. CC(C)OC(=O)[C@H](C)N[P@](=O)(OC[C@H]1O[C@@H](n2ccc(=O)[nH]c2=O)[C@](Cl)(Br)[C@@H]1O)Oc1cccc2ccccc12
2. CCOC(=O)C(C)(C)NP(=O)(OC[C@H]1O[C@@H](n2ccc(=O)[nH]c2=O)[C@](Cl)(Br)[C@@H]1O)Oc1ccccc1 (stereo partly drawn)

1: 6.86; 2: 5.93

====

test: Inhibition of NS5B polymerase in HCV genotype 1a H77 infected in human HuH7 replicon cells assessed as inhibition of viral replication after 3 days by luciferase reporter gene assay
test.readout: EC50 (nM)
One number for each entry, in nM.

[
  {
    "compound": "CCOC(=O)[C@H](C)N[P@@](=O)(OC[C@H]1O[C@@H](n2ccc(=O)[nH]c2=O)[C@](Cl)(Br)[C@@H]1O)Oc1ccccc1",
    "unit.descriptor": "nM",
    "EC50": 1210
  },
  {
    "compound": "CCOC(=O)[C@H](C)N[P@](=O)(OC[C@H]1O[C@@H](n2ccc(=O)[nH]c2=O)[C@](Cl)(Br)[C@@H]1O)Oc1ccccc1",
    "unit.descriptor": "nM",
    "EC50": 298
  },
  {
    "compound": "COCC(=O)OC[C@H](C)NP(=O)(OC[C@H]1O[C@@H](n2ccc(=O)[nH]c2=O)[C@](Cl)(Br)[C@@H]1O)Oc1ccccc1 (stereo partly specified)",
    "unit.descriptor": "nM",
    "EC50": 2500
  },
  {
    "compound": "CC(C)OC(=O)[C@H](C)N[P@@](=O)(OC[C@H]1O[C@@H](n2ccc(=O)[nH]c2=O)[C@](Cl)(Br)[C@@H]1O)Oc1ccccc1",
    "unit.descriptor": "nM",
    "EC50": 415
  },
  {
    "compound": "CC(C)OC(=O)C(C)(C)NP(=O)(OC[C@H]1O[C@@H](n2ccc(=O)[nH]c2=O)[C@](Cl)(Br)[C@@H]1O)Oc1ccccc1 (stereo partly specified)",
    "unit.descriptor": "nM",
    "EC50": 1090
  }
]

Now turn to the next compound.
// EC50 lookup, key: CC(C)OC(=O)[C@H](C)N[P@](=O)(OC[C@H]1O[C@@H](n2ccc(=O)[nH]c2=O)[C@](Cl)(Br)[C@@H]1O)Oc1cccc2ccccc12 106

====

assay: Inhibition of NS5B polymerase in HCV genotype 1a H77 infected in human HuH7 replicon cells assessed as inhibition of viral replication after 3 days by luciferase reporter gene assay
Note to self: use Yes only for EC50 readings below 0.3 µM; a reading exactly at 0.3 µM still gets No.

[
  {
    "molecule": "COCC(C)OC(=O)[C@H](C)NP(=O)(OC[C@H]1O[C@@H](n2ccc(=O)[nH]c2=O)[C@](Cl)(Br)[C@@H]1O)Oc1ccccc1 (stereo not given in full)",
    "classification": "No"
  },
  {
    "molecule": "COCC(C)C(=O)OC[C@H](C)NP(=O)(OC[C@H]1O[C@@H](n2ccc(=O)[nH]c2=O)[C@](Cl)(Br)[C@@H]1O)Oc1ccccc1 (stereo not given in full)",
    "classification": "No"
  },
  {
    "molecule": "CC(C)C(=O)OC[C@H](C)NP(=O)(OC[C@H]1O[C@@H](n2ccc(=O)[nH]c2=O)[C@](Cl)(Br)[C@@H]1O)Oc1ccccc1 (stereo not given in full)",
    "classification": "No"
  },
  {
    "molecule": "CC(C)OC(=O)[C@H](C)N[P@](=O)(OC[C@H]1O[C@@H](n2ccc(=O)[nH]c2=O)[C@](Cl)(Br)[C@@H]1O)Oc1ccccc1",
    "classification": "Yes"
  }
]

Please check: EC50 for CC(C)OC(=O)[C@H](C)N[P@](=O)(OC[C@H]1O[C@@H](n2ccc(=O)[nH]c2=O)[C@](Cl)(Br)[C@@H]1OC(=O)[C@@H](N)C(C)C)Oc1ccccc1 , strictly under 0.3 µM or not? Yes

====

Please go through the items and note down their EC50.
test: Inhibition of NS5B polymerase in HCV genotype 1a H77 infected in human HuH7 replicon cells assessed as inhibition of viral replication after 3 days by luciferase reporter gene assay
Hey, just the number and the unit after it is fine.

Illustrative cases are given below, each with its answer.
[
  {
    "molecule": "CC(C)OC(=O)[C@H](C)N[P@](=O)(OC[C@H]1O[C@@H](n2ccc(=O)[nH]c2=O)[C@](Cl)(Br)[C@@H]1OC(=O)[C@@H](N)C(C)C)Oc1cccc2ccccc12",
    "EC50": "94 nM"
  },
  {
    "molecule": "COc1cccc(O[P@](=O)(N[C@@H](C)C(=O)OC(C)C)OC[C@H]2O[C@@H](n3ccc(=O)[nH]c3=O)[C@](Cl)(Br)[C@@H]2O)c1",
    "EC50": "98 nM"
  }
]

Let us move to another entry and its EC50.
I am curious: what EC50 value has been reported for CCOC(=O)C(C)(C)NP(=O)(OC[C@H]1O[C@@H](n2ccc(=O)[nH]c2=O)[C@](Cl)(Br)[C@@H]1O)Oc1ccccc1 (stereo partly drawn) ? 960 nM

====

Please respond with reported pEC50 for every item in the list.
assay: Inhibition of NS5B polymerase in HCV genotype 1b Con1 infected in human HuH7 replicon cells assessed as inhibition of viral replication after 3 days by luciferase reporter gene assay
Give bare numbers, as −log10 of the molar value.

# example entries with known answers
[
  {
    "molecule": "CC(C)OC(=O)[C@H](C)N[P@](=O)(OC[C@H]1O[C@@H](n2ccc(=O)[nH]c2=O)[C@](Cl)(Br)[C@@H]1OC(=O)[C@@H](N)C(C)C)Oc1cccc2ccccc12",
    "pEC50": 7.00
  },
  {
    "molecule": "CCOC(=O)[C@H](C)N[P@](=O)(OC[C@H]1O[C@@H](n2ccc(=O)[nH]c2=O)[C@](Cl)(Br)[C@@H]1O)Oc1ccccc1",
    "pEC50": 6.52
  },
  {
    "molecule": "COc1cccc(O[P@](=O)(N[C@@H](C)C(=O)OC(C)C)OC[C@H]2O[C@@H](n3ccc(=O)[nH]c3=O)[C@](Cl)(Br)[C@@H]2O)c1",
    "pEC50": 6.90
  },
  {
    "molecule": "CC(C)OC(=O)[C@H](C)N[P@@](=O)(OC[C@H]1O[C@@H](n2ccc(=O)[nH]c2=O)[C@](Cl)(Br)[C@@H]1O)Oc1ccccc1",
    "pEC50": 6.29
  },
  {
    "molecule": "CCOC(=O)[C@H](C)N[P@@](=O)(OC[C@H]1O[C@@H](n2ccc(=O)[nH]c2=O)[C@](Cl)(Br)[C@@H]1O)Oc1ccccc1",
    "pEC50": 5.92
  }
]

Below: the item to evaluate.
Sample COCC(=O)OC[C@H](C)NP(=O)(OC[C@H]1O[C@@H](n2ccc(=O)[nH]c2=O)[C@](Cl)(Br)[C@@H]1O)Oc1ccccc1 (stereo partly specified) — what was its pEC50? 5.52
